I'd appreciate it if you could supply inhibition values for the items below.
method summary: HTRF signal interference by compounds, confirmation, artefact control for SUMOylation inhibitor project, biochemical, uHTS (AID 2069)
experimental context: HTRF interference counterscreen, fluorescence, at 35 µM, stronger effect = higher value
About 210 (18%) of roughly 1,200 compounds were called active. A selection follows.
One number for each entry, in %.

Dear colleague, could you send me inhibition for each of the items below? Thanks.
1. COc1ccc(-c2cc(C(F)(F)F)n3ncc(C(=O)NCc4ccco4)c3n2)cc1
2. Oc1ccccc1N=Cc1c(O)ccc2ccccc12
3. COc1ccc(CNC(=O)c2c(C)oc3c2C(=O)c2ccccc2C3=O)cc1
4. CCN(CC(=O)c1c(N)n(C)c(=O)n(C)c1=O)c1cccc2ccccc12
5. CC(C)CC(=O)Nc1ccc(C(=O)Cn2nc(C(=O)O)c3ccccc3c2=O)cc1
6. COc1ccc(-c2csc(NC(=S)NC(=O)/C=C/c3ccco3)n2)cc1OC
7. COc1ccc2oc(=O)c(C(=O)NCC3CCCO3)cc2c1 (centres undefined)

44.1
-5.9
5.35
11.8
-7.35
10.6
40.9

Dear colleague, could you send me inhibition for each of the items below? Thanks.
1. COc1cc2c(ccc3cc(OC)c(OC)c(O)c32)cc1O
2. N#C/C(=C\c1ccc(-c2ccc([N+](=O)[O-])cc2)o1)C(=O)Nc1nc(-c2cccs2)cs1
3. COc1ccc2nc(NC(=O)CCc3ccc(OC)c(OC)c3)sc2c1
4. Nc1c(N2CCCC2)cc(Cl)c2nonc12
5. NC1=NC(=O)/C(=C\c2ccco2)S1
6. O=C(Nc1ccc2nsnc2c1)N1CCCCC1

24.2
0.8
10.8
22.4
16.6
12.4

###

method summary: HTRF signal interference by compounds, confirmation, artefact control for SUMOylation inhibitor project, biochemical, uHTS (AID 2069)
experimental context: HTRF interference counterscreen, fluorescence, at 35 µM
In all, about 1,200 compounds went through this assay and about 210 (18%) were called active. Rule as the data show it: active = inhibition above about 30%; inactive = the rest. These entries were drawn from the full list.
The categories you may choose from are active, inactive

Solved cases below.
molecule: Cc1ccc(S(=O)(=O)c2cc3c(=O)n4ccccc4nc3n(Cc3ccco3)c2=N)cc1C
group label: inactive

molecule: O=C(Nc1ccc(N2CCOCC2)c2nonc12)C1CCCC1
group label: inactive

molecule: Nc1ccc2oc(-c3cccs3)nc2c1
group label: active

molecule: Cn1c(C(=O)NCC2CCCO2)cc2c(=O)n3ccccc3nc21 (stereo unspecified)
group label: active

molecule: N#Cc1c(-c2ccco2)cc(-c2cccnc2)nc1N
group label: inactive

Recorded test call requested for CC(=O)Nc1ccc(S(=O)(=O)Nc2nc3ccccc3nc2Nc2ccc3ccccc3c2)cc1 inactive

Recorded test call requested for CCOc1ccc(S(=O)(=O)N2CCCC(C(=O)NCc3ccco3)C2)cc1 (stereo unspecified) inactive

Recorded test call requested for CN(Cc1ccco1)C(=O)c1cc2c(s1)-c1ccc(Cl)cc1S(=O)(=O)C2 inactive

Recorded test call requested for N#Cc1c(N)nc2c(c1-c1ccc3c(c1)OCO3)CCc1ccccc1-2 inactive

Recorded test call requested for Nc1ccc(Br)c2cccnc12 inactive

Recorded test call requested for Nc1cccc2cnccc12 inactive

Recorded test call requested for COC(=O)c1cc(O)cc(OC)c1Oc1cc(C)cc(O)c1C(=O)O inactive

Recorded test call requested for Cc1cc(C)c(S(=O)(=O)NCC23C=CC(O2)C2C(=O)N(c4ccccc4)C(=O)C23)c(C)c1 (stereo unspecified) inactive

Recorded test call requested for COc1ccc2nc3ccccc3nc2c1N inactive

Recorded test call requested for Cc1ccc2oc(-c3ccc(C)c(NC(=O)Cc4cccs4)c3)nc2c1 inactive

Recorded test call requested for Cc1nc2ccc(-c3nc4cc(N)ccc4o3)cc2[nH]1 active

Recorded test call requested for COc1ccc(/C=C/c2nnc(NC(=O)CSc3ccc(C)cc3)s2)cc1 inactive

Recorded test call requested for O=C1C=C(O)c2c(O)cccc2C1=O inactive

Recorded test call requested for Cc1[nH]n(-c2ccccc2)c(=O)c1/C=N/N(C)c1ccccc1 inactive

Recorded test call requested for Cc1ccc(/C=N/NC(=O)c2cccc(S(=O)(=O)Nc3cccc(Cl)c3)c2)o1 inactive

Recorded test call requested for Cc1cccc(NC(=O)/C(C#N)=C/c2cn(CC(=O)NCc3ccco3)c3ccccc23)c1C inactive

Recorded test call requested for COc1cc(Br)c(C(=O)c2nccc3cc(OC)c(OC)cc23)cc1OC inactive

Recorded test call requested for Cc1ccc(NC(=S)Nc2cccc3ccccc23)cc1F inactive

###

method summary: HTRF signal interference by compounds, confirmation, artefact control for SUMOylation inhibitor project, biochemical, uHTS (AID 2069)
experimental context: HTRF interference counterscreen, fluorescence, at 35 µM, stronger effect = higher value
About 210 (18%) of roughly 1,200 compounds were called active. Only a sample is shown.
I'd appreciate it if you could supply inhibition values for the items below.
Give bare numbers, in %.

Dear colleague, could you send me inhibition for each of the items below? Thanks.
1. Cc1ccc(NC(=O)CN2C(=O)S/C(=C/c3ccc(-c4cc(C(=O)O)ccc4C)o3)C2=O)cc1C
2. CC1CCCN(c2nc3ccccc3nc2C(C#N)S(=O)(=O)c2ccccc2)C1 (configuration not stated)
3. CC(O)C(=O)N/N=C/c1cccc(Cl)c1Cl (configuration not stated)
4. Cc1ccc(NC(=O)Nc2cccn(Cc3c(F)cccc3Cl)c2=O)cc1
5. CC(C)(C)C1CCC2(CC1)Nc1cccc3cccc(c13)N2
6. Nc1ccc2nc(-c3ccccc3)sc2c1
7. Nc1ccc2c(c1)sc1ccccc12

[37.2, 11.8, -5.5, 3.65, -2.5, 66, -9.65]

Dear colleague, could you send me inhibition for each of the items below? Thanks.
1. CC1=CC(C)(C)N2C(=O)C(=Nc3ccc(O)cc3)c3cccc1c32
2. NS(=O)(=O)c1ccc(-c2ccc(/C=C3\NC(=S)NC3=O)o2)cc1
3. O=C(N/N=C/c1ccc(O)c2ncccc12)c1cccc(Br)c1
4. C/C(=N\NC(=O)c1cc(O)ccc1O)c1cccc(NC(=O)c2ccc(Cl)cc2)c1
5. O=[N+]([O-])c1ccc(C=Nc2cccc3ccccc23)s1
6. O=C1/C(=N\S(=O)(=O)c2cccs2)C([n+]2cccc(Cc3ccccc3)c2)=C([O-])c2ccccc21
7. CC1=NN(c2ccc(Cl)cc2)C(=O)C1C(c1cccc(O)c1)c1c(C)[nH]n(-c2ccc(Cl)cc2)c1=O (configuration not stated)

1. -3.6
2. -17.4
3. -4.25
4. -7.9
5. 5.6
6. 22
7. -23.6

###

method summary: HTRF signal interference by compounds, confirmation, artefact control for SUMOylation inhibitor project, biochemical, uHTS (AID 2069)
experimental context: HTRF interference counterscreen, fluorescence, at 35 µM
Hit rate of the full screen: of about 1,200 compounds, about 210 (18%) were called active. Cut-off read from the data, not from the text of the source: active = inhibition above about 30%; inactive = the rest. Not all results are given here.
The categories you may choose from are active, inactive

Solved cases below.
molecule: COc1ccc(C)c2sc(NC(=O)c3cccc(N4C(=O)CCC4=O)c3)nc12
group label: inactive
//
molecule: CCCCCCCn1c(NC(=O)CC)nc2ccccc21
group label: inactive
//
molecule: N#Cc1c(N(CCO)CCO)nc(N)c2c(N)nc3c(c12)CC(=O)N3CC1CCCO1 (stereo unspecified)
group label: active

Recorded test call requested for CCc1cccc(NC(=S)Nc2cccc3ccccc23)c1 inactive

Recorded test call requested for C/C(CCc1ccco1)=N\NC(=O)CNc1cccc2ccccc12 inactive

Recorded test call requested for CN(CCO)c1nc(N)c2c(N)nc3c(c2c1C#N)CC(=O)N3C1CCCC1 active

###

method summary: HTRF signal interference by compounds, confirmation, artefact control for SUMOylation inhibitor project, biochemical, uHTS (AID 2069)
experimental context: HTRF interference counterscreen, fluorescence, at 35 µM
The whole screen tested about 1,200 compounds, of which about 210 (18%) were called active. Cut-off read from the data, not from the text of the source: active = inhibition above about 30%; inactive = the rest. Not all results are given here.
The categories you may choose from are active, inactive

molecule: Cn1c(C(=O)N2CCN(C(=O)c3ccco3)CC2)cc2c(=O)n3ccccc3nc21
group label: active

Let us examine a further case.
Recorded test call requested for N=c1c(S(=O)(=O)c2ccc(Cl)cc2)cc2c(=O)n3ccccc3nc2n1Cc1ccco1 inactive

###

method summary: HTRF signal interference by compounds, confirmation, artefact control for SUMOylation inhibitor project, biochemical, uHTS (AID 2069)
experimental context: HTRF interference counterscreen, fluorescence, at 35 µM, stronger effect = higher value
Screen size: about 1,200 compounds; about 210 (18%) were called active. These entries were drawn from the full list.
inhibition below 10% gives rule not met; inhibition at or above it gives rule met.

Solved cases below.
compound: COC(=O)c1scc(C)c1NC(=O)C(Cl)c1ccccc1 (stereo not given)
group label: rule not met
//
compound: Cc1[nH][nH]c(=O)c1C(c1c(C)[nH][nH]c1=O)c1cn(Cc2ccc(F)cc2)c2ccccc12
group label: rule not met
//
compound: CCOc1ccc(NC(=S)Nc2ccc3nsnc3c2)cc1
group label: rule met

hey, is inhibition for this one >= 10%? COc1cc(OC)c2c(O)c3c(c(-c4c5c(c(O)c6c(OC)cc(OC)cc46)CO[C@@H](C)[C@H]5O)c2c1)[C@H](O)[C@H](C)OC3 rule met
